tested on: foxtail, giant (giant foxtail, Setaria faberii); test: Test A preemergence, visual injury rating 0-100; format: in vivo; details: 500 g ai/ha
observable: Foxtail, Giant plant response rating (0 to 100 scale)

molecule	subject of test	val
CC1=[N+]([O-])C(C(=O)Nc2cccc(F)c2F)C(c2cccc(C3OCCO3)c2)C1 (racemic)	foxtail, giant (giant foxtail, Setaria faberii)	90
CC1=[N+]([O-])C(C(=O)Nc2cccc(F)c2F)C(c2cc(C(F)(F)F)ccc2C)C1 (stereo not shown)	foxtail, giant (giant foxtail, Setaria faberii)	100
CC1=[N+]([O-])C(C(=O)Nc2cccc(F)c2F)C(c2cc(F)c(C(F)(F)F)c(F)c2)C1 (racemic)	foxtail, giant (giant foxtail, Setaria faberii)	90
CC1=[N+]([O-])C(C(=O)Nc2cccc(F)c2F)C(c2cccc(Oc3ccc(Cl)cn3)c2)C1 (racemic)	foxtail, giant (giant foxtail, Setaria faberii)	90
CC1=[N+]([O-])C(C(=O)Nc2cccc(F)c2F)C(c2cccc3c2CCC3)C1 (racemic)	foxtail, giant (giant foxtail, Setaria faberii)	100
CC1=[N+]([O-])C(C(=O)Nc2cccc(F)c2F)C(c2ccc(=O)n(Cc3ccc(Cl)cc3)c2)C1 (racemic)	foxtail, giant (giant foxtail, Setaria faberii)	0
COc1cc(OC)cc(C2CC(C)=[N+]([O-])C2C(=O)Nc2cccc(F)c2F)c1 (stereo not shown)	foxtail, giant (giant foxtail, Setaria faberii)	90
